Entry source: patent US20260184708A1

Recorded IC50, one value per entry.
# tested on: TRPC5 (Homo sapiens)
# Construct: expressed in transfected cells; host or cells: HEK 293
# procedure summary: TRPC5 automated patch clamp assay (Qpatch), current block after rosiglitazone stimulation
# Type: cell-based
# experimental context: HEK293 cells overexpressing TRPC5; rosiglitazone stimulation; 100 mV; read-out: TRPC5_QP XC50_100

molecule	IC50
Cc1ccccc1CN1CC2CC(C1)N2c1cn[nH]c(=O)c1Br	10 to 500 µM
CC(c1ccccc1)N1CCN(c2cn[nH]c(=O)c2Br)CC1 (centres unmarked)	5 to 10 µM
O=C(c1ccccc1)N1CCN(c2cn[nH]c(=O)c2Br)CC1	10 to 500 µM
Cc1ccccc1CN1CCN(c2cn[nH]c(=O)c2Cl)CC1=O [drawing 631]	1e-05 to 1 µM
Cc1ccccc1CN1CCN(c2cn[nH]c(=O)c2Br)CC1	1 to 5 µM
Cc1cccc(C)c1CN1CCN(c2cn[nH]c(=O)c2Br)CC1	1 to 5 µM
O=c1[nH]ncc(N2CCC(Cc3ccccc3)CC2)c1Br	10 to 500 µM
CN1CCN(c2cn[nH]c(=O)c2Br)CC1	10 to 500 µM
Cc1ccccc1CN1CCCN(c2cn[nH]c(=O)c2Br)CC1	5 to 10 µM
Cc1ccccc1S(=O)(=O)N1CCN(c2cn[nH]c(=O)c2Br)CC1	10 to 500 µM
O=c1[nH]ncc(N2CCN(Cc3ccccc3)CC2)c1Br	5 to 10 µM

###

Catalogue of pIC50 readings, one per entry.
# tested on: TRPC5 (Homo sapiens)
# Construct: expressed in transfected cells; host or cells: HEK 293
# Sequence (Q9UL62 1-973): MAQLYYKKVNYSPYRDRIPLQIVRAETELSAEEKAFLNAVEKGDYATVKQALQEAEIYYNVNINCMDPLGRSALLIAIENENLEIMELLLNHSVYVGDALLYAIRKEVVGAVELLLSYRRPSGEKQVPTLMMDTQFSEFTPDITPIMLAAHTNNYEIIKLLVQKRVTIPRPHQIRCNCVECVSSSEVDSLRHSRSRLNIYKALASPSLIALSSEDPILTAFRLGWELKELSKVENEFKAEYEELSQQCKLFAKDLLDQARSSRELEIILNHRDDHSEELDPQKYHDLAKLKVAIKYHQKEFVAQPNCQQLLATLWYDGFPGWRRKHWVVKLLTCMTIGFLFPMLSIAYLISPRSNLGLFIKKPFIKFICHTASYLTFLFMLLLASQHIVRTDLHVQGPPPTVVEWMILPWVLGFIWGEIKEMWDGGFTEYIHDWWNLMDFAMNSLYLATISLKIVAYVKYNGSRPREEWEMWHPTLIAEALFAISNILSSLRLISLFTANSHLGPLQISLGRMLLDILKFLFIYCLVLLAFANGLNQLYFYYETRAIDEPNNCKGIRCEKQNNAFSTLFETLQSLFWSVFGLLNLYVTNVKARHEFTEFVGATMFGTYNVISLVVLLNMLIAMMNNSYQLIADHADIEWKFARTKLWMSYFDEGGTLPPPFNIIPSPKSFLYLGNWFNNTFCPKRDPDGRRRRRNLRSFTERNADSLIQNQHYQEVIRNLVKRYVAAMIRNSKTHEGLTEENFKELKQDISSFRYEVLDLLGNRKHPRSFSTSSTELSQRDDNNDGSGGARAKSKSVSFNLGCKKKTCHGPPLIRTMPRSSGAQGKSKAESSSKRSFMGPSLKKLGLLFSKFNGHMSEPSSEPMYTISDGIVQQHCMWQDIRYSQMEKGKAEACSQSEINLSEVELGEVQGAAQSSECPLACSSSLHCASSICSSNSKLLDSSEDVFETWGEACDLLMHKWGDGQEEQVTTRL
# procedure summary: TRPC5 automated patch clamp assay (Qpatch), current block after rosiglitazone stimulation
# Type: cell-based
# experimental context: Table 4; HEK293 cells overexpressing TRPC5; rosiglitazone stimulation; 80 mV; read-out: TRPC5_QP_ XC50_80
pIC50: −log10 of the molar value.
measured metric: pIC50

compound	tested on	measured metric	measured result
O=C1CN(c2cn[nH]c(=O)c2Cl)CCN1Cc1ccc(C(F)(F)F)cc1	TRPC5 (Homo sapiens)	pIC50	6.00 to 11.00
O=C1CN(c2cn[nH]c(=O)c2Cl)CCN1Cc1ccc(-c2ccccc2)cc1	TRPC5 (Homo sapiens)	pIC50	3.30 to 5.00
O=C1CN(c2cn[nH]c(=O)c2Cl)CCN1Cc1ccccc1Oc1ccccc1	TRPC5 (Homo sapiens)	pIC50	5.00 to 5.30
O=c1[nH]ncc(N2CCN(Cc3cccc4cn[nH]c34)CC2)c1Cl	TRPC5 (Homo sapiens)	pIC50	3.30 to 5.00
Cn1ncc2c(CN3CCN(c4cn[nH]c(=O)c4Cl)CC3)cccc21	TRPC5 (Homo sapiens)	pIC50	3.30 to 5.00
Cc1ccccc1CN1CCN(c2cn[nH]c(=O)c2CCC(C)C)CC1=O [drawing 700]	TRPC5 (Homo sapiens)	pIC50	3.30 to 5.00
O=C1CN(c2cn[nH]c(=O)c2Cl)CCN1Cc1ccc(Cl)cn1	TRPC5 (Homo sapiens)	pIC50	3.30 to 5.00
C[C@@H]1CN(CC(=O)N(C)C)CCN1c1cn[nH]c(=O)c1Cl	TRPC5 (Homo sapiens)	pIC50	3.30 to 5.00
O=c1[nH]ncc(N2CCN(Cc3ccccc3C(F)(F)F)CC2)c1Cl [drawing 699]	TRPC5 (Homo sapiens)	pIC50	5.30 to 6.00
Cn1ncc2c(CN3CCN(c4cn[nH]c(=O)c4Cl)CC3=O)cccc21	TRPC5 (Homo sapiens)	pIC50	5.30 to 6.00

###

List of pIC50 values.
# tested on: TRPC5 (Homo sapiens, UniProt Q9UL62)
# Construct: expressed in transfected cells; host or cells: HEK 293
# procedure summary: TRPC5 Fluorescence Assay - FLIPR format (HEK-TREx hTRPC5, Riluzole stimulation)
# Type: cell-based
# experimental context: Table 10, read-out: TRPCS-FLIPR IC50
# Protocol: • Cell line: ICLN-001633 • Base Cell: HEK • Channel: TRPC5 • Species: Human • Thaw ID: multiple • Passage: multiple FLIPR Assay Buffer (Earls Balanced Salt Solution (EBSS) was prepared as follows: […] Experimental Methods: Cells expressing TRPC5 (HEK-TREx hTRPC5) are plated onto 384 well, black PDL-coated microplates and maintained in TRPC5 growth media the day prior to use for experiments. […] Changes in fluorescence are monitored for an additional 5 minutes. […]
pIC50: −log10 of the molar value.

compound	pIC50
CCc1ncccc1[C@H](C)n1nnc2c1CCN(c1cn[nH]c(=O)c1Cl)C2 [drawing 1059]	6.00 to 11.00
O=c1[nH]ncc(N2CCc3c(cnn3Cc3ccc(F)cc3CN3CCOCC3)C2)c1Cl	6.00 to 11.00
O=c1[nH]ncc(N2CCc3c(c(=O)[nH]n3Cc3ccccc3C(F)F)C2)c1Cl [drawing 1052]	6.00 to 11.00
O=c1[nH]ncc(N2CCc3c(c(CN4CCOCC4)nn3Cc3ccccc3C(F)F)C2)c1Cl	6.00 to 11.00
Nc1nn(Cc2ccccc2C(F)(F)F)c2c1CN(c1cn[nH]c(=O)c1Cl)CC2	5.30 to 6.00
C[C@H](c1ccccc1C(F)(F)F)n1[nH]c(=O)c2c1CCN(c1cn[nH]c(=O)c1Cl)C2	6.00 to 11.00
C[C@H]1c2nnn([C@@H](C)c3ccccc3C(F)(F)F)c2CCN1c1cn[nH]c(=O)c1Cl	6.00 to 11.00
NC(=O)c1nc2c(n1Cc1ccccc1C(F)(F)F)CCN(c1cn[nH]c(=O)c1Cl)C2 [drawing 1135]	6.00 to 11.00
O=c1[nH]ncc(N2CCc3c(Cc4ccc(F)cc4C(F)(F)F)n[nH]c3C2)c1Cl [drawing 1153]	6.00 to 11.00
O=C(c1nn(Cc2ccccc2C(F)F)c2c1CN(c1cn[nH]c(=O)c1Cl)CC2)N1CCOCC1	6.00 to 11.00
C[C@@H](c1ccc(F)cc1CN1CCN(C)CC1)n1nnc2c1CCN(c1cn[nH]c(=O)c1Cl)C2	5.00 to 5.30
C[C@H](c1ccc(Cl)cc1C(F)(F)F)n1nnc2c1CCN(c1cn[nH]c(=O)c1Cl)C2	6.00 to 11.00
CO[C@H]1CN(c2cn[nH]c(=O)c2Cl)Cc2nnn(Cc3ccccc3C(F)F)c21	5.30 to 6.00
C[C@@H](c1ccccc1C(F)(F)F)n1[nH]c(=O)c2c1CCN(c1cn[nH]c(=O)c1Cl)C2	6.00 to 11.00
CN(c1ccc(F)cc1C(F)(F)F)c1n[nH]c2c1CCN(c1cn[nH]c(=O)c1Cl)C2	6.00 to 11.00
O=c1[nH]ncc(N2CCc3c(nnn3Cc3ccc(F)cc3CN3CCOCC3)C2)c1Cl	5.30 to 6.00
C[C@@H]1Cc2c(nnn2[C@@H](C)c2ccccc2C(F)(F)F)CN1c1cn[nH]c(=O)c1Cl [drawing 1071]	6.00 to 11.00
C[C@@H](c1ccc(F)cc1C(F)(F)F)n1[nH]c(=O)c2c1CCN(c1cn[nH]c(=O)c1Cl)C2	6.00 to 11.00
